These entries and their values trace back to ChEMBL document CHEMBL5291721.

Parameter 'readout' = AC50; parameter 'system' = D(3) dopamine receptor (Homo sapiens, UniProt P35462). Further: assay procedure not described here.
Sequence (P35462 whole entry): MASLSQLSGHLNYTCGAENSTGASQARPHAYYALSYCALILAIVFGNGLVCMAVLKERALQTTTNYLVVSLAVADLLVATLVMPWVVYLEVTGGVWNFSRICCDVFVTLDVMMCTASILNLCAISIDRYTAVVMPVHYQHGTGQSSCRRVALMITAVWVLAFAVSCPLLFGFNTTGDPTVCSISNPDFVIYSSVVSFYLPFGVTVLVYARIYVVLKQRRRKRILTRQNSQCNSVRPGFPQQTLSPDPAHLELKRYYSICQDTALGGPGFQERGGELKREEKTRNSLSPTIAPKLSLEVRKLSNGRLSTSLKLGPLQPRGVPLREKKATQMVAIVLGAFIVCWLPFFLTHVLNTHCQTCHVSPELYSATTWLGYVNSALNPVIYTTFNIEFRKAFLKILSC

>  <COMPOUND>
C=C1c2cccc(O)c2C(=O)C2=C(O)[C@]3(O)C(=O)C(C(N)=O)=C(O)[C@@H](N(C)C)[C@@H]3[C@@H](O)[C@H]12

>  <METRIC>
AC50

>  <RESULT>
> 30 µM

$$$$
>  <COMPOUND>
O=C(O)c1cccnc1Nc1cccc(C(F)(F)F)c1

>  <METRIC>
AC50

>  <RESULT>
> 30 µM

$$$$
>  <COMPOUND>
Fc1ccc([C@@H]2CCNC[C@H]2COc2ccc3c(c2)OCO3)cc1

>  <METRIC>
AC50

>  <RESULT>
> 10 µM

$$$$

Pending compound:
Ask: Fetch value of AC50 on D(3) dopamine receptor (Homo sapiens, UniProt P35462) for Clc1ccc(CCC(Cn2ccnc2)Sc2c(Cl)cccc2Cl)cc1 (centres undefined) .
Reply: > 30 µM
